Tested on: KM3/BTZ
Experiment: Induction of apoptosis in bortezomib resistant human KM3/BTZ cells assessed as viable cells level at 50 nM incubated for 24 hrs by Annexin V-FITC/PI staining based FCAS analysis (reference value: 98.1%)
Type: functional
The threshold is inclusive: Activity of exactly 90% counts as satisfied; values below receive not satisfied.

Examples with answers:
1. CC(C)C[C@H](NC(=O)[C@H](Cc1ccccc1)NC(=O)c1cnccn1)B(O)O [BORTEZOMIB]; not satisfied
2. CC(C)C[C@H](NC(=O)[C@H](Cc1ccccc1)NC(=O)c1ccc(C(=O)Nc2ccccc2N)cc1)B1O[C@@H]2[C@@H]3C[C@H](C[C@]2(C)O1)C3(C)C; not satisfied
3. Nc1ccccc1NC(=O)c1ccc(CNC(=O)OCc2cccnc2)cc1 [ENTINOSTAT]; satisfied

Is Activity at least 90%? Consider O=C(CCCCCCC(=O)Nc1ccccc1)NO [VORINOSTAT] satisfied
